system: SK-OV-3 ovarian; assay: NCI tumour cell line growth inhibition, 48 h
Label Condition met when TGI is at or above 30 µM; anything below gets Condition not met.

Some solved entries appear below for comparison.
{"COMPOUND": "[Cl-].[O-]/N=C(\\c1ccccc1)c1ccccn1.[O-]/N=C(\\c1ccccc1)c1ccccn1.[O-]/N=C(\\c1ccccc1)c1ccccn1.[Sm+3]", "CLASS_LABEL": "Condition met"}
{"COMPOUND": "CCC[CH2][Sn]1([CH2]CCC)[O]CC(Cc2ccccc2)[O]1 (stereo unspecified)", "CLASS_LABEL": "Condition not met"}
{"COMPOUND": "S=C(Nc1ccc(Br)cc1)Nc1ccc(Br)cc1", "CLASS_LABEL": "Condition met"}
{"COMPOUND": "O=C(CO[N+](=O)[O-])Nc1ccc(C(=O)/C=C/c2ccc(Cl)cc2)cc1", "CLASS_LABEL": "Condition met"}
{"COMPOUND": "[Cl][Hg][Cl]", "CLASS_LABEL": "Condition met"}
{"COMPOUND": "COc1ccc(S(=O)(=O)Nc2ccccc2C(=O)O)cc1", "CLASS_LABEL": "Condition met"}
{"COMPOUND": "COC(=O)c1c(O)ccc2c1c1c(n2Cc2ccccc2Cl)C(=O)c2ccccc2C1=O", "CLASS_LABEL": "Condition not met"}
{"COMPOUND": "CC(O)c1cc2c(s1)C(=O)c1sccc1C2=O (stereo unspecified)", "CLASS_LABEL": "Condition not met"}
{"COMPOUND": "O=CN1CCN(C(=O)c2ccc(Cl)cc2Cl)C1=S", "CLASS_LABEL": "Condition met"}

Next compound, please.
Challenge: Determine whether this compound has TGI no lower than 30 µM: CC(=O)N=C1N(/C=C2\C(=O)Oc3ccccc3C2=O)C(=O)/C(=C/c2ccc(OC(C)=O)cc2)N1C
Response given: Condition met

###

The entries below come with measured GI50 values attached.
test system: SK-MEL-28 melanoma; experiment: NCI tumour cell line growth inhibition, 48 h

{"COMPOUND": "[Cl][Hg][Cl]", "TARGET_OR_TEST_SYSTEM": "SK-MEL-28 melanoma", "MEASURED_RESULT": "15.3 µM"}

Challenge: Which GI50 is listed for CN(C)CCCNC(=O)c1cc(NC(=O)c2cc(NC(=O)CCc3c[nH]c4ccccc34)cn2C)cn1C ?
Response given: > 100 µM

Challenge: Which GI50 is listed for COc1cc(-c2cc3ncccc3c3nc(N)c4cccnc4c23)cc(OC)c1OC ?
Response given: 2.93 µM

###

test system: SK-MEL-5 melanoma; test: NCI tumour cell line growth inhibition, 48 h
MEASURED_QUANTITY: TGI

Examples from the recorded data:
{"COMPOUND": "BrCCCCCOc1ccc(-c2c3ccccc3c(-c3ccc(OCCCCCBr)cc3)c3ccccc23)cc1", "MEASURED_RESULT": "> 100 µM"}
{"COMPOUND": "CC(C)CC(NC(=O)c1cccc(O)c1O)C(=O)NCc1cc(CNC(=O)C(CC(C)C)NC(=O)c2cccc(O)c2O)cc(CNC(=O)C(CC(C)C)NC(=O)c2cccc(O)c2O)c1 (stereo not given)", "MEASURED_RESULT": "30.4 µM"}
{"COMPOUND": "CC1=Nc2nc(Cl)cn2C(=O)C1(Cl)Cl", "MEASURED_RESULT": "> 10 µM"}
{"COMPOUND": "COc1ccc(-n2cnnc2-c2nsc3ccccc23)cc1", "MEASURED_RESULT": "> 100 µM"}
{"COMPOUND": "COc1ccc(-c2cc(=O)c3cc4c(cc3[nH]2)OCO4)cc1OC", "MEASURED_RESULT": "> 100 µM"}

Challenge: Report TGI for Cc1c(Cl)nc(Nc2nc3ccccc3[nH]2)nc1Cl please.
Response given: > 100 µM

Challenge: Look up TGI: Cc1cc(S(=O)(=O)Nc2nc3cscc3c(=O)n2Cc2ccccc2)c(S)cc1Cl
Response given: > 100 µM

###

system: HS 578T breast; assay: NCI tumour cell line growth inhibition, 48 h; in the data active = GI50 below about 0.43 µM; inactive = the rest
Respond only with the outcome that fits, drawn from class 1 (active), class 0 (inactive)

Example entries begin here.
{"COMPOUND": "CCOC(=O)c1sc(-c2ccc(OS(=O)(=O)c3ccc(Br)s3)c(C=O)c2)nc1C", "CLASS_LABEL": "class 0"}
{"COMPOUND": "CCOc1ccc2nc(SCc3nc4n(n3)S(=O)(=O)c3ccccc3N4C)sc2c1", "CLASS_LABEL": "class 0"}
{"COMPOUND": "CNC(=O)c1ccc(N2CCN(Cc3ccc4nc(C)c(=O)[nH]c4c3F)CC2)c(F)n1", "CLASS_LABEL": "class 0"}
{"COMPOUND": "Cc1nc(SCC(=O)Nc2nc(-c3ccc(Cl)cc3)cs2)n(Nc2ccccc2)c1C", "CLASS_LABEL": "class 0"}
{"COMPOUND": "C=C1C(=O)O[C@H]2C[C@@H]1CC/C(C)=C/CC/C(C)=C/CC[C@H]2C", "CLASS_LABEL": "class 0"}
{"COMPOUND": "C=C1C(=O)O[C@H]2[C@H]1CC/C(COC(=O)CSCCSCC(=O)OC/C1=C/CC[C@@]3(C)O[C@H]3[C@H]3OC(=O)C(=C)[C@@H]3CC1)=C\\CC[C@@]1(C)O[C@@H]21", "CLASS_LABEL": "class 0"}
{"COMPOUND": "CC[N+](CC)=c1sc2c(s1)C(c1ccc(Cl)cc1)Oc1ccc(Cl)cc1-2 (stereo not given)", "CLASS_LABEL": "class 0"}
{"COMPOUND": "CCCNNC(=O)/C=C/c1ccc(CNCCc2c(C)[nH]c3ccccc23)cc1", "CLASS_LABEL": "class 1"}

Challenge: Hi, do you know how COC(=O)[C@@H](C)C[C@H](Cc1ccccc1)NC(=O)c1csc(CC[C@H](C(C)C)N(C)C(=O)[C@@H](NC(=O)[C@H]2CCCCN2C)C(C)C)n1 came out in this test?
Response given: class 0

Challenge: Hi team, can someone confirm the assay call for COC(=O)c1c2c(c[n+]([O-])c1C)C(=O)C=CC2=O ?
Response given: class 0

###

test system: UACC-257 melanoma; assay: NCI tumour cell line growth inhibition, 48 h
MEASURED_QUANTITY: TGI (µM)
Only the number, expressed in µM, is required.

Challenge: Given Cc1ccsc1/C=N/Nc1nc2ccccc2s1 , state its recorded TGI.
Response given: 51.4

Challenge: If you can, please state the reported TGI value of CCCCCC[N+](C)(C)Cc1ccc(C[N+](C)(C)CCCCCC)cc1 .
Response given: 35.5

Challenge: Could you tell me which TGI is on file for CN(C)CCNC(=O)c1cccc2c(NCCN(C)C)c3ccccc3nc12 ?
Response given: 17.3

Challenge: What value of TGI has been reported for the following molecule? Clc1ccc(SC(/C=C/NNC2=NC(c3ccccc3)C(c3ccccc3)=NN2)c2ccccc2)cc1 (stereo unspecified)
Response given: 55.2

Challenge: Request the reported TGI associated with Fc1ccc2[nH]cc(-c3nonc3-c3c[nH]c4ccc(Br)cc34)c2c1
Response given: 13.8

###

The compounds listed here are annotated with their log10(TGI).
test system: HS 578T breast; assay: NCI tumour cell line growth inhibition, 48 h
// do not treat as linear: log10 of TGI, unit µM

Use these answered entries as a reference point.
{"COMPOUND": "COc1ccc2c(C)cc(N/N=C/c3ccc(OC)c4ccccc34)nc2c1", "MEASURED_RESULT": 1.52}
{"COMPOUND": "O=C(/C=C/c1ccc(O)c(O)c1)OCCCc1ccccc1", "MEASURED_RESULT": 1.87}
{"COMPOUND": "N[C@H](C(=O)O)[C@H]1ON=C(Cl)[C@@H]1O", "MEASURED_RESULT": 1.99}

Challenge: Returns the measured log10(TGI) for the input compound. Input: Nc1ncnc2c1nnn2C1C=CC(COS(N)(=O)=O)C1 (configuration not stated)
Response given: 0.92

Challenge: If you can, please state the reported log10(TGI) value of CCN(Cc1cccc(F)c1)c1ccc(CO)c(Cl)c1 .
Response given: 1.87

Challenge: Sample CN(C)CCNC(=O)c1cccc2c(NCCN(C)C)c3ccccc3nc12 — what was its log10(TGI)?
Response given: 0.93

###

Measured GI50, listed per entry for reference.
test system: HCC-2998 colon; assay: NCI tumour cell line growth inhibition, 48 h

{"CHEMICAL_STRING": "CN(C)CCCOc1ccc(-c2ccc3ncc4c(c3c2)n(C2CCOCC2)c(=O)n4C)cn1", "MEASURED_RESULT": "2.51 µM"}
{"CHEMICAL_STRING": "O=C(Nc1cccc(-n2ccc3c(NC(=O)c4ccccc4)nccc32)c1)Nc1cc(C(F)(F)F)cc(C(F)(F)F)c1", "MEASURED_RESULT": "2.1 µM"}
{"CHEMICAL_STRING": "COc1ccc2c(c1)C(=O)c1c-2n(CCCN=[N+]=[N-])c(=O)c2cc(OC)c(OC)cc12", "MEASURED_RESULT": "13.7 µM"}
{"CHEMICAL_STRING": "C=C1C(=O)O[C@H]2[C@H]1CC/C(COC(=O)CSCCSCC(=O)OC/C1=C/CC[C@@]3(C)O[C@H]3[C@H]3OC(=O)C(=C)[C@@H]3CC1)=C\\CC[C@@]1(C)O[C@@H]21", "MEASURED_RESULT": "1.85 µM"}
{"CHEMICAL_STRING": "COc1cc(/C=C2\\C(=O)Nc3cc(C)c(O)cc32)cc(OC)c1OC", "MEASURED_RESULT": "5.18 µM"}
{"CHEMICAL_STRING": "COc1cc(C#Cc2ccc(=O)oc2C#Cc2ccccc2)cc(OC)c1OC", "MEASURED_RESULT": "2.6 µM"}
{"CHEMICAL_STRING": "Cc1cc(S(=O)(=O)Nc2nc3cscc3c(=O)n2Cc2ccccc2)c(S)cc1Cl", "MEASURED_RESULT": "18.9 µM"}

Turning now to a further record.
Challenge: HCC-2998 colon / GI50 / [Cl-].[O-]/N=C(\c1ccccc1)c1ccccn1.[O-]/N=C(\c1ccccc1)c1ccccn1.[O-]/N=C(\c1ccccc1)c1ccccn1.[Sm+3] : value?
Response given: 25.7 µM
